experiment: Passive permeability from basolateral to apical side in human Caco2 cells at 12.5 uM; format: ADME, cell-based; details: Caco-2, read-out: permeability
experimental.readout: Papp B→A at 12.5 µM

>>> result("Cc1c(F)cc(C(=O)NC2CC2)cc1-c1ccn2c(C(C)(C)C)nnc2c1")
"23 ×10⁻⁶ cm/s"
>>> result("Cc1ccc(C(=O)NC2CC2)cc1-c1ccn2c(C(C)(C)C)nnc2c1")
"18 ×10⁻⁶ cm/s"
>>> result("Cc1c(F)cc(C(=O)NC2CC2)cc1-c1c(F)cn2c(C(C)(C)C)nnc2c1F")
"25 ×10⁻⁶ cm/s"

----------
Reported half-life values are given for each entry in this list.
assay: Half life in Wistar rat at 1 mg/kg, iv; assay type: ADME, organism-based; set-up: dose 1 mg/kg, route intravenous; settings: in vivo
experimental.readout: half-life (h)

>>> numeric_value("Cc1c(F)cc(C(=O)NC2CC2)cc1-c1ccn2c(C(C)(C)C)nnc2c1")
3.8
>>> numeric_value("Cc1c(F)cc(C(=O)NC2CC2)cc1-c1c(F)cn2c(C(C)(C)C)nnc2c1F")
3.3
>>> numeric_value("Cc1ccc(C(=O)NC2CC2)cc1-c1ccn2c(C(C)(C)C)nnc2c1")
3.4

----------
experiment: Clearance in Wistar rat at 1 mg/kg, iv; format: ADME, organism-based; parameters: dose 1 mg/kg, route intravenous; details: in vivo
experimental.readout: clearance

>>> result("Cc1ccc(C(=O)NC2CC2)cc1-c1ccn2c(C(C)(C)C)nnc2c1")
"7.8 mL/min/kg"
>>> result("Cc1c(F)cc(C(=O)NC2CC2)cc1-c1ccn2c(C(C)(C)C)nnc2c1")
"6.5 mL/min/kg"
>>> result("Cc1c(F)cc(C(=O)NC2CC2)cc1-c1c(F)cn2c(C(C)(C)C)nnc2c1F")
"2.3 mL/min/kg"

----------
experiment: Protein binding in rat plasma; assay type: ADME, cell-free; conditions: read-out: PPB (converted)
experimental.readout: fraction unbound

>>> numeric_value("Cc1ccc(C(=O)NC2CC2)cc1-c1ccn2c(C(C)(C)C)nnc2c1")
0.39
>>> numeric_value("Cc1c(F)cc(C(=O)NC2CC2)cc1-c1ccn2c(C(C)(C)C)nnc2c1")
0.21
>>> numeric_value("Cc1c(F)cc(C(=O)NC2CC2)cc1-c1c(F)cn2c(C(C)(C)C)nnc2c1F")
0.25

----------
assay: Protein binding in human plasma; assay type: ADME, cell-free; details: read-out: PPB (converted)
experimental.readout: fraction unbound

>>> result("Cc1ccc(C(=O)NC2CC2)cc1-c1ccn2c(C(C)(C)C)nnc2c1")
0.42
>>> result("Cc1c(F)cc(C(=O)NC2CC2)cc1-c1ccn2c(C(C)(C)C)nnc2c1")
0.16
>>> result("Cc1c(F)cc(C(=O)NC2CC2)cc1-c1c(F)cn2c(C(C)(C)C)nnc2c1F")
0.21

----------
target: RAF proto-oncogene serine/threonine-protein kinase (Homo sapiens, UniProt P04049)
Sequence (P04049 whole entry): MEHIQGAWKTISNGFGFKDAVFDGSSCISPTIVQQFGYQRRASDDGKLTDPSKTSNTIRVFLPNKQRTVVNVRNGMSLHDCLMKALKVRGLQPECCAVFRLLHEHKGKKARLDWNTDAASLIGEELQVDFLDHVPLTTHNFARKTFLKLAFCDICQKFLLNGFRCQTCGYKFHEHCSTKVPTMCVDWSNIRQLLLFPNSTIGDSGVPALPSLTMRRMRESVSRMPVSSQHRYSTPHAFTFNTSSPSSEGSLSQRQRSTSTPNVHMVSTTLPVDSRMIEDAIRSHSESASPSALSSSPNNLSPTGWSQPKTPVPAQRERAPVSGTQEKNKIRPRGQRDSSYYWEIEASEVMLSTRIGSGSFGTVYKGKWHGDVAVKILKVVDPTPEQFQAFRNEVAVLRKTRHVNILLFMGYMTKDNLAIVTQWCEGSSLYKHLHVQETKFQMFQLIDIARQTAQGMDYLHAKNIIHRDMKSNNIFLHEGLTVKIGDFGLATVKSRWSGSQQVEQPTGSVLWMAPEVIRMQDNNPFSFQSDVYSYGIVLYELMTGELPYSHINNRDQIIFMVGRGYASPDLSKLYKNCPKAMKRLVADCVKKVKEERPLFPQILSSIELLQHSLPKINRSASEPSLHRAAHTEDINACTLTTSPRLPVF
pIC50: −log10 of the molar value.
experimental.readout: pIC50

>>> numeric_value("Cc1ccc(C(=O)NC2CC2)cc1-c1ccn2c(C(C)(C)C)nnc2c1")
5.49

----------
assay: in vitro; settings: human, Caco-2
Description: Passive permeability from apical to basolateral side in human Caco2 cells at 12.5 uM
Here, each record is paired with measured Papp A→B at 12.5 µM data.
experimental.readout: Papp A→B at 12.5 µM (×10⁻⁶ cm/s)

>>> numeric_value("Cc1c(F)cc(C(=O)NC2CC2)cc1-c1ccn2c(C(C)(C)C)nnc2c1")
27
>>> numeric_value("Cc1ccc(C(=O)NC2CC2)cc1-c1ccn2c(C(C)(C)C)nnc2c1")
15
>>> numeric_value("Cc1c(F)cc(C(=O)NC2CC2)cc1-c1c(F)cn2c(C(C)(C)C)nnc2c1F")
41

Values compiled from ChEMBL document CHEMBL2086331.
